B1: Membrane-associated guanylate kinase, WW and PDZ domain-containing protein 2, residues 296 to 340; numbered along this chain, Q86UL8 (parent)
chain: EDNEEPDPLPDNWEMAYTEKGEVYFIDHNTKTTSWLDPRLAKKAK

# Variants of: B1
# assay_summary: abundance fitness (aPCA) (normalised: wild type 0, dead -1); higher = more abundant; growth selection in yeast, the domain comes from the species named
# condition_set: Homo sapiens
abundance fitness reference
Just the number.

Study these solved cases before continuing.
G21Y: -0.337
K20I: -0.12
L36M: -0.053
V23Q: 0.14
D2Q: 0.08

Okay, now this variant:
Task: # abundance fitness lookup, item E4S
Output: 0.078

Provenance of the data: the Human Domainome abundance scans (Beltran et al. 2025)
